B1: library; numbered along this chain (parent)
chain: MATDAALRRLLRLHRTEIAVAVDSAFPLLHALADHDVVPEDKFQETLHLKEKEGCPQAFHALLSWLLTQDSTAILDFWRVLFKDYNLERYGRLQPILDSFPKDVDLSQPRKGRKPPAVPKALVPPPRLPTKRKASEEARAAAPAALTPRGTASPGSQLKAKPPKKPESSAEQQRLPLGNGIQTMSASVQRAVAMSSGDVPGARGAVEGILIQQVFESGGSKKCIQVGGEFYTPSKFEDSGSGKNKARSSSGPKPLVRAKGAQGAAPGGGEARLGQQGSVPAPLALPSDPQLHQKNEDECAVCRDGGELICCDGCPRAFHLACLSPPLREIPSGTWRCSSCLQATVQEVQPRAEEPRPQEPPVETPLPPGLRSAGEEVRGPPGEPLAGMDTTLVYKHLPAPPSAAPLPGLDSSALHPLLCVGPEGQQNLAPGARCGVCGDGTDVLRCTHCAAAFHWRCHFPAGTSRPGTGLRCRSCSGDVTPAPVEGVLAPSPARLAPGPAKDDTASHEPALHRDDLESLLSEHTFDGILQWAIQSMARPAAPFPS

# Variants of: B1
# Test name: AIRE transcriptional activation functional score (insulin promoter-GFP; nonsense median 0, synonymous median 1) (normalised score); higher = higher AIRE activity (more reporter activation)
# Test conditions: with insulin promoter-GFP reporter in HEK293
Quantity: AIRE transcriptional activation functional score

[[record]]
mutation_code = "A496N"
reading = 0.726

[[record]]
mutation_code = "F543D"
reading = 0.845

[[record]]
mutation_code = "L158G"
reading = 1.33

[[record]]
mutation_code = "V199Y"
reading = 1.4

[[record]]
mutation_code = "L66G"
reading = -0.202

[[record]]
mutation_code = "P350C"
reading = 0.761

[[record]]
mutation_code = "L158P"
reading = 0.723

[[record]]
mutation_code = "G440E"
reading = 0.195

[[record]]
mutation_code = "Q173M"
reading = 2.11

[[record]]
mutation_code = "G467W"
reading = 1.12

[[record]]
mutation_code = "P176C"
reading = 2.34

[[record]]
mutation_code = "T46V"
reading = -0.0333

[[record]]
mutation_code = "R356E"
reading = 1.09

[[record]]
mutation_code = "L11M"
reading = 0.0247

[[record]]
mutation_code = "Q262R"
reading = 0.909

[[record]]
mutation_code = "P380S"
reading = 0.998

[[record]]
mutation_code = "R445Q"
reading = 0.898

[[record]]
mutation_code = "P286V"
reading = 1.26

[[record]]
mutation_code = "A117G"
reading = 1.22

[[record]]
mutation_code = "P126L"
reading = 0.122

[[record]]
mutation_code = "G408Q"
reading = 1.29

[[record]]
mutation_code = "L520E"
reading = 0.103

